B1: Nuclear receptor subfamily 1 group D member 2, residues 103 to 171; numbered along this chain, Q14995 (parent)
chain: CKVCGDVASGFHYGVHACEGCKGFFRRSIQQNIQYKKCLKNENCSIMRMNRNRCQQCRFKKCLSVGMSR

Variants of: B1
assay method text: abundance fitness (aPCA) (normalised: wild type 0, dead -1); higher = more abundant; growth selection in yeast, the domain comes from the species named
measurement conditions: Homo sapiens
recorded metric: abundance fitness
Keep it simple and answer with nothing but the number.

Here is how some variants turned out for abundance fitness.
Q30S
-0.364
I46R
-0.127
K60I
0.406
K37V
-0.387

So what's the measured abundance fitness for this one? N32C
-0.612

Follow-up entry: C54N
-0.722

Consider next the variant R58V in the same way.
-0.903

Now consider C54K and answer again.
-0.134

# iterate: C38L
-1.01

Cited source for all entries: the Human Domainome abundance scans (Beltran et al. 2025)
